target.or.system: Adenosine receptor A1 (Homo sapiens) (UniProt P30542)
method.notes: Displacement of [3H]DPCPX from human adenosine A1 receptor expressed in CHO cell membrane at 1 uM preincubated for 4 hrs followed by [3H]DPCPX addition and measured after 0.5 hrs by radioligand displacement assay
Assay type: cell membranes
particulars: time 4.5 hrs
Note to self: use Condition met only for Activity readings below 10%; a reading exactly at 10% still gets Condition not met.

INSERT INTO assay_data (smiles_notation, class_assignment) VALUES
  ('CCCn1c(=O)[nH]c2nc(-c3cccc(N=C=S)c3)[nH]c2c1=O', 'Condition not met'),
  ('CCCn1c(=O)[nH]c2nc(-c3ccc(S(=O)(=O)F)cc3)[nH]c2c1=O', 'Condition not met'),
  ('CCCn1c(=O)[nH]c2nc(-c3ccc(OS(=O)(=O)F)cc3)[nH]c2c1=O', 'Condition not met'),
  ('CCCn1c(=O)[nH]c2nc(-c3cccc(OS(=O)(=O)F)c3)[nH]c2c1=O', 'Condition met'),
  ('CCCn1c(=O)c2[nH]c(-c3ccc(S(=O)(=O)F)cc3)nc2n(CCC)c1=O', 'Condition not met');

====

Recorded Activity for the following compounds
target.or.system: Adenosine receptor A1 (Homo sapiens) (UniProt P30542)
method.notes: Displacement of [3H]DPCPX from human adenosine A1 receptor expressed in CHO cell membrane at 1 uM preincubated for 4 hrs followed by [3H]DPCPX addition and measured after 0.5 hrs by radioligand displacement assay
Type: cell membranes
particulars: time 4.5 hrs
measurement.type: Activity (%)

INSERT INTO measurements (smiles_notation, target_or_system, measured_value) VALUES
  ('CCCn1c(=O)[nH]c2nc(-c3ccc(N=C=S)cc3)[nH]c2c1=O', 'Adenosine receptor A1 (Homo sapiens) (UniProt P30542)', 97),
  ('CCCn1c(=O)c2[nH]c(-c3cccc(OS(=O)(=O)F)c3)nc2n(CCC)c1=O', 'Adenosine receptor A1 (Homo sapiens) (UniProt P30542)', 77),
  ('CCCn1c(=O)c2[nH]c(-c3cccc(N=C=S)c3)nc2n(CCC)c1=O', 'Adenosine receptor A1 (Homo sapiens) (UniProt P30542)', 96),
  ('CCCn1c(=O)[nH]c2nc(-c3cccc(S(=O)(=O)F)c3)[nH]c2c1=O', 'Adenosine receptor A1 (Homo sapiens) (UniProt P30542)', 36),
  ('CCCn1c(=O)c2[nH]c(-c3ccc(N=C=S)cc3)nc2n(CCC)c1=O', 'Adenosine receptor A1 (Homo sapiens) (UniProt P30542)', 92),
  ('CCCn1c(=O)c2[nH]c(-c3cccc(S(=O)(=O)F)c3)nc2n(CCC)c1=O', 'Adenosine receptor A1 (Homo sapiens) (UniProt P30542)', 61),
  ('CCCn1c(=O)c2[nH]c(-c3ccc(OS(=O)(=O)F)cc3)nc2n(CCC)c1=O', 'Adenosine receptor A1 (Homo sapiens) (UniProt P30542)', 85);

====

target.or.system: Adenosine receptor A2a (Homo sapiens) (UniProt P29274)
Sequence (P29274 whole entry): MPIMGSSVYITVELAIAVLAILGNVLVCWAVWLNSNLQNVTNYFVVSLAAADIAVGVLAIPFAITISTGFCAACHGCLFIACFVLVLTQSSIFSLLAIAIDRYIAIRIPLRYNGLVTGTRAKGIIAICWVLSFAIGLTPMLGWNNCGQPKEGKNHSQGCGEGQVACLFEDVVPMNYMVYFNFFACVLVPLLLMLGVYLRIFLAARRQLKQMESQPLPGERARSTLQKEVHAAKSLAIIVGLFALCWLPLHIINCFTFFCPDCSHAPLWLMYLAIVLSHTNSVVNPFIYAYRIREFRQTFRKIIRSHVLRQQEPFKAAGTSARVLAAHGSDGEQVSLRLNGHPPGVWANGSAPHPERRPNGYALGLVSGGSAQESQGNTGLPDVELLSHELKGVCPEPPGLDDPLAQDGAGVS
method.notes: Displacement of [3H]ZM241385 from human adenosine A2A receptor expressed in HEK293 cell membrane at 1 uM and measured after 0.5 hrs by radioligand displacement assay
Format: cell membranes
Each entry below carries its reported Activity.
measurement.type: Activity (%)

INSERT INTO assay_data (smiles_notation, target_or_system, measurement_type, unit_name, measured_value) VALUES
  ('CCCn1c(=O)[nH]c2nc(-c3cccc(OS(=O)(=O)F)c3)[nH]c2c1=O', 'Adenosine receptor A2a (Homo sapiens) (UniProt P29274)', 'Activity', '%', 2),
  ('CCCn1c(=O)[nH]c2nc(-c3ccc(OS(=O)(=O)F)cc3)[nH]c2c1=O', 'Adenosine receptor A2a (Homo sapiens) (UniProt P29274)', 'Activity', '%', 35),
  ('CCCn1c(=O)c2[nH]c(-c3ccc(S(=O)(=O)F)cc3)nc2n(CCC)c1=O', 'Adenosine receptor A2a (Homo sapiens) (UniProt P29274)', 'Activity', '%', 54),
  ('CCCn1c(=O)c2[nH]c(-c3ccc(N=C=S)cc3)nc2n(CCC)c1=O', 'Adenosine receptor A2a (Homo sapiens) (UniProt P29274)', 'Activity', '%', 40),
  ('CCCn1c(=O)[nH]c2nc(-c3ccc(N=C=S)cc3)[nH]c2c1=O', 'Adenosine receptor A2a (Homo sapiens) (UniProt P29274)', 'Activity', '%', 25),
  ('CCCn1c(=O)c2[nH]c(-c3cccc(S(=O)(=O)F)c3)nc2n(CCC)c1=O', 'Adenosine receptor A2a (Homo sapiens) (UniProt P29274)', 'Activity', '%', 19),
  ('CCCn1c(=O)[nH]c2nc(-c3cccc(S(=O)(=O)F)c3)[nH]c2c1=O', 'Adenosine receptor A2a (Homo sapiens) (UniProt P29274)', 'Activity', '%', 20),
  ('CCCn1c(=O)c2[nH]c(-c3cccc(OS(=O)(=O)F)c3)nc2n(CCC)c1=O', 'Adenosine receptor A2a (Homo sapiens) (UniProt P29274)', 'Activity', '%', 13),
  ('CCCn1c(=O)c2[nH]c(-c3ccc(OS(=O)(=O)F)cc3)nc2n(CCC)c1=O', 'Adenosine receptor A2a (Homo sapiens) (UniProt P29274)', 'Activity', '%', 63),
  ('CCCn1c(=O)c2[nH]c(-c3cccc(N=C=S)c3)nc2n(CCC)c1=O', 'Adenosine receptor A2a (Homo sapiens) (UniProt P29274)', 'Activity', '%', 47),
  ('CCCn1c(=O)[nH]c2nc(-c3ccc(S(=O)(=O)F)cc3)[nH]c2c1=O', 'Adenosine receptor A2a (Homo sapiens) (UniProt P29274)', 'Activity', '%', 52),
  ('CCCn1c(=O)[nH]c2nc(-c3cccc(N=C=S)c3)[nH]c2c1=O', 'Adenosine receptor A2a (Homo sapiens) (UniProt P29274)', 'Activity', '%', 0);

====

target.or.system: Adenosine receptor A2b (Homo sapiens, UniProt P29275)
Sequence (P29275 whole entry): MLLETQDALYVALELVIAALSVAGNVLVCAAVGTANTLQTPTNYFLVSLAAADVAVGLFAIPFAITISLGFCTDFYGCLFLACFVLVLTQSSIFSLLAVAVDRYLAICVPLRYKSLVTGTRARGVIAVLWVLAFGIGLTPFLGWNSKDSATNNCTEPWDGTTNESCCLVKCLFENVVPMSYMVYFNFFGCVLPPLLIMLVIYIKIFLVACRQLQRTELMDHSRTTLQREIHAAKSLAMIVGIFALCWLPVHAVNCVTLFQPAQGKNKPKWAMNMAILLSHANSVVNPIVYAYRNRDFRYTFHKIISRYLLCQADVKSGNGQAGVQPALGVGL
method.notes: Displacement of [3H]PSB-603 from human adenosine A2B receptor expressed in CHO cell membrane preincubated for 4 hrs followed by [3H]PSB-603 addition and measured after 0.5 hrs by radioligand displacement assay
Format: cell membranes
pKi: −log10 of the molar value.
measurement.type: pKi

INSERT INTO measurements (smiles_notation, measurement_type, measured_value) VALUES
  ('CCCn1c(=O)[nH]c2nc(-c3ccc(N=C=S)cc3)[nH]c2c1=O', 'pKi', 9.18),
  ('CCCn1c(=O)[nH]c2nc(-c3cccc(N=C=S)c3)[nH]c2c1=O', 'pKi', 8.55),
  ('CCCn1c(=O)c2[nH]c(-c3ccc(N=C=S)cc3)nc2n(CCC)c1=O', 'pKi', 8.49),
  ('CCCn1c(=O)[nH]c2nc(-c3ccc(OS(=O)(=O)F)cc3)[nH]c2c1=O', 'pKi', 8.26),
  ('CCCn1c(=O)[nH]c2nc(-c3ccc(S(=O)(=O)F)cc3)[nH]c2c1=O', 'pKi', 9.17),
  ('CCCn1c(=O)[nH]c2nc(-c3cccc(OS(=O)(=O)F)c3)[nH]c2c1=O', 'pKi', 7.15),
  ('CCCn1c(=O)c2[nH]c(-c3ccc(OS(=O)(=O)F)cc3)nc2n(CCC)c1=O', 'pKi', 7.29),
  ('CCCn1c(=O)c2[nH]c(-c3cccc(OS(=O)(=O)F)c3)nc2n(CCC)c1=O', 'pKi', 6.28),
  ('CCCn1c(=O)c2[nH]c(-c3cccc(N=C=S)c3)nc2n(CCC)c1=O', 'pKi', 7.31),
  ('CCCn1c(=O)c2[nH]c(-c3ccc(S(=O)(=O)F)cc3)nc2n(CCC)c1=O', 'pKi', 8.62),
  ('CCCn1c(=O)c2[nH]c(-c3cccc(S(=O)(=O)F)c3)nc2n(CCC)c1=O', 'pKi', 6.80),
  ('CCCn1c(=O)[nH]c2nc(-c3cccc(S(=O)(=O)F)c3)[nH]c2c1=O', 'pKi', 7.88);

====

target.or.system: Adenosine receptor A1 (Homo sapiens) (UniProt P30542)
Sequence (whole entry): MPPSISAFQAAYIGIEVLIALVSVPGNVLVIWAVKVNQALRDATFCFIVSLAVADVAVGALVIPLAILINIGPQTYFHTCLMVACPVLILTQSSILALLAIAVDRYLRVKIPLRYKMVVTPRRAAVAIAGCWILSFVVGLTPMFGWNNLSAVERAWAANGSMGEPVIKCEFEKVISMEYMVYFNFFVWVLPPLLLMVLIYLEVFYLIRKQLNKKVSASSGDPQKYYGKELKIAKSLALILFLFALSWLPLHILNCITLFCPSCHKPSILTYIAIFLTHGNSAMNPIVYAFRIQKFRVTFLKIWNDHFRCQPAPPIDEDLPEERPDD
method.notes: Displacement of [3H]DPCPX from human adenosine A1 receptor expressed in CHO cell membrane at 1 uM and measured after 0.5 hrs by radioligand displacement assay
Type: cell membranes
Consider the following partition of reported Activity into named classes: low: < 20%; mid: ≥ 20% and < 70%; high: ≥ 70%

INSERT INTO measurements (smiles_notation, class_assignment) VALUES
  ('CCCn1c(=O)[nH]c2nc(-c3cccc(S(=O)(=O)F)c3)[nH]c2c1=O', 'low'),
  ('CCCn1c(=O)[nH]c2nc(-c3ccc(OS(=O)(=O)F)cc3)[nH]c2c1=O', 'low'),
  ('CCCn1c(=O)c2[nH]c(-c3cccc(OS(=O)(=O)F)c3)nc2n(CCC)c1=O', 'high'),
  ('CCCn1c(=O)c2[nH]c(-c3cccc(N=C=S)c3)nc2n(CCC)c1=O', 'high'),
  ('CCCn1c(=O)c2[nH]c(-c3cccc(S(=O)(=O)F)c3)nc2n(CCC)c1=O', 'mid'),
  ('CCCn1c(=O)c2[nH]c(-c3ccc(S(=O)(=O)F)cc3)nc2n(CCC)c1=O', 'mid'),
  ('CCCn1c(=O)c2[nH]c(-c3ccc(OS(=O)(=O)F)cc3)nc2n(CCC)c1=O', 'high'),
  ('CCCn1c(=O)[nH]c2nc(-c3cccc(N=C=S)c3)[nH]c2c1=O', 'low'),
  ('CCCn1c(=O)[nH]c2nc(-c3cccc(OS(=O)(=O)F)c3)[nH]c2c1=O', 'low'),
  ('CCCn1c(=O)[nH]c2nc(-c3ccc(S(=O)(=O)F)cc3)[nH]c2c1=O', 'mid'),
  ('CCCn1c(=O)[nH]c2nc(-c3ccc(N=C=S)cc3)[nH]c2c1=O', 'mid'),
  ('CCCn1c(=O)c2[nH]c(-c3ccc(N=C=S)cc3)nc2n(CCC)c1=O', 'high');
